study system: MAGL (Mus musculus, UniProt O35678)
Construct: mouse brain membrane fraction or cell lysates for mouse assays
Sequence (O35678 whole entry): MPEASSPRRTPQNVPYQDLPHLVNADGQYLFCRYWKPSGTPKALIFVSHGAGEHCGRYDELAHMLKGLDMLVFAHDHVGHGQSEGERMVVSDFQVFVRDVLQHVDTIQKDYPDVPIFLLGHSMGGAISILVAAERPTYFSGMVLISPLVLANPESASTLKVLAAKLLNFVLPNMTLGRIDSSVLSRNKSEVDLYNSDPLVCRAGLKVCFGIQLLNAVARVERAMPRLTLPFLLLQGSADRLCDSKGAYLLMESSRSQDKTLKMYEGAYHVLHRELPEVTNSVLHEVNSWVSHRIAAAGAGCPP
experiment notes: In vitro competitive activity-based protein profiling, mouse MAGL
endpoint name: IC50

O=C(N1CC2CN(Cc3ccccc3Cl)CC2C1)n1cc(C(F)(F)F)cn1 (centres unmarked) :: ≤ 100 nM
CN(Cc1ccccc1Cl)[C@H]1C[C@@H]2CN(C(=O)n3cc(C(N)=O)cn3)C[C@@H]2C1 :: 100 to 1000 nM
O=C(N1CCC2(CCN(Cc3cccc(F)c3)C2)C1)n1cc(C(F)(F)F)cn1 (centres unmarked) :: 100 to 1000 nM
O=C(N1CC2CN(Cc3cccc(Oc4ccccc4)c3)CC2C1)n1cc(Cl)cn1 (centres unmarked) :: ≤ 100 nM

// switching to the query compound
Specify IC50 for O=C(N1CC2CN(Cc3ccc(F)cc3N3CCCC3)CC2C1)n1cc(Cl)cn1 (centres unmarked) and stop.
≤ 100 nM

* * *

study system: MAGL (Homo sapiens)
Construct: human prefrontal cortex or cell membrane fractions for human assays; from tissue
Sequence (Q99685 whole entry): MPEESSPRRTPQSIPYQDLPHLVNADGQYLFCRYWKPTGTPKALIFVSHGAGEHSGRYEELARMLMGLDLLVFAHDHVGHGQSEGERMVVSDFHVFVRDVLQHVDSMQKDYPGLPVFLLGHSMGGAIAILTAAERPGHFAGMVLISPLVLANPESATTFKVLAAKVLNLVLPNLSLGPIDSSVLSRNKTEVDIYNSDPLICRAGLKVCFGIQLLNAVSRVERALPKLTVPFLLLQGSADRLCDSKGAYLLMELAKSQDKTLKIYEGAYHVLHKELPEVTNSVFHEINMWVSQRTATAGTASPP
experiment notes: In vitro competitive activity-based protein profiling, human MAGL
Format: biochemical
recorded conditions: 1 μM, read-out: MAGL % inh. 1 μM (human)
Readings of inhibition at 1 µM for the listed compounds

# example entries with known answers
NC(=O)c1cnn(C(=O)N2CCC3(CCN(Cc4cc(N5CCOCC5)cc(C(F)(F)F)c4)C3)C2)c1 (centres unmarked) [Example 210] :: ≥ 75%
CN(Cc1ccc(N2CCCC2)cc1C(F)(F)F)[C@@H]1C[C@@H]2CN(C(=O)n3cc(C(N)=O)cn3)C[C@@H]2C1 [Example 220] :: 0 to 25%
O=C(O)c1cnn(C(=O)N2CC3CN(Cc4ccc(N5CCCC5)cc4C(F)(F)F)CC3C2)c1 (centres unmarked) [Example 197] :: 0 to 25%
O=C(O)c1cnn(C(=O)N2CC3CN(Cc4cc(N5CCCC5)cc(C(F)(F)F)c4)CC3C2)c1 (centres unmarked) [Example 198] :: 0 to 25%

// switching to the query compound
State the measured inhibition at 1 µM (MAGL (Homo sapiens)) of O=C(O)c1cnn(C(=O)N2CC3CN(Cc4cc(Cl)ccc4C(F)(F)F)CC3C2)c1 (centres unmarked) [Example 196]
0 to 25%

* * *

study system: FAAH (Mus musculus, UniProt O08914)
Construct: mouse brain membrane fraction or cell lysates for mouse assays; from tissue
Sequence (O08914 1-579): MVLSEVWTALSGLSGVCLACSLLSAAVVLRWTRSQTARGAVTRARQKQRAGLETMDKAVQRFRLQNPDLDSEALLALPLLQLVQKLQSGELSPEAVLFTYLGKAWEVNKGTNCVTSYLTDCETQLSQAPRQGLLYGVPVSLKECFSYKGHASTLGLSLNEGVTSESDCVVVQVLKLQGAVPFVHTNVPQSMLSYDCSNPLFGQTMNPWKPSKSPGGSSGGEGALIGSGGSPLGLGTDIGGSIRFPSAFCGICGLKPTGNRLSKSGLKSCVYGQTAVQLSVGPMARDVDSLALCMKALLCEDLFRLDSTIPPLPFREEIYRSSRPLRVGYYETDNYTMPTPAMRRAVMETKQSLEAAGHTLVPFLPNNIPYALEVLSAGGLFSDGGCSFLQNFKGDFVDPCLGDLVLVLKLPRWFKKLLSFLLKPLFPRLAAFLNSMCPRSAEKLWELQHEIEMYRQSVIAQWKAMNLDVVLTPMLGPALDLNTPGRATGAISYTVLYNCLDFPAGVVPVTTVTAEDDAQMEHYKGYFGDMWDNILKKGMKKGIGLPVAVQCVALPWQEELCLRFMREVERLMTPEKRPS
experiment notes: In vitro competitive activity-based protein profiling, mouse FAAH
Type: biochemical
recorded conditions: 1 μM, read-out: FAAH % inh. 1 μM (mouse)
endpoint name: inhibition at 1 µM

CNC(=O)c1cnn(C(=O)N2CC3CN(Cc4cc(Cl)cc(C(F)(F)F)c4)CC3C2)c1 (stereo not drawn) :: ≥ 75%
O=C(N1CCC2(CCN(Cc3cccc(Cl)c3)C2)C1)n1cc(C(F)(F)F)cn1 (stereo not drawn) :: ≥ 75%
CN(Cc1ccc(C(F)(F)F)cc1)[C@@H]1C[C@@H]2CN(C(=O)n3cc(C(N)=O)cn3)C[C@@H]2C1 :: ≥ 75%

Specify inhibition at 1 µM for NC(=O)c1cnn(C(=O)N2CCC3(CCN(Cc4ccc(Cl)c(Cl)c4)C3)C2)c1 (stereo not drawn) and stop.
≥ 75%

Specify inhibition at 1 µM for O=C(N1C[C@H]2C[C@H](NCc3cccc(Cl)c3)C[C@H]2C1)n1cc(Cl)cn1 and stop.
≥ 75%

Specify inhibition at 1 µM for O=C(N1CCC2(CCN(Cc3ccc(Cl)c(Cl)c3)C2)C1)n1cc(Cl)cn1 (stereo not drawn) and stop.
≥ 75%
